Values were extracted from the supplement of paper PMC11061612.

# Test system: NTERA-2-cl-D1 (Other Solid Carcinomas);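 also: after 72 h of two-drug dosing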
# Assay Summary: Bliss excess, mean over the matrix (fraction); higher = more synergy
Mark satisfied for reported Bliss excess of -0.002 or greater; mark not satisfied for anything smaller.

Use these answered entries as a reference point.
CS(=O)(=O)CCNCc1ccc(-c2ccc3ncnc(Nc4ccc(OCc5cccc(F)c5)c(Cl)c4)c3c2)o1 [Lapatinib] + NC1(c2ccc(-c3nc4ccn5c(=O)[nH]nc5c4cc3-c3ccccc3)cc2)CCC1 [MK-2206] (first compound max 10 µM, 7x7, partner max 10 µM)	satisfied
C[C@@H]1COCCN1c1cc(C2([S@](C)(=N)=O)CC2)nc(-c2ccnc3[nH]ccc23)n1 [AZD6738] + C1CC(C1)(C(=O)[O-])C(=O)[O-].N.N.[Pt+2] [Carboplatin] (first compound max 10 µM, 7x7, partner max 10 µM)	not satisfied
COc1cccc(OCCCN)c1-c1cc(Nc2cnc(C#N)cn2)n[nH]1 [Prexasertib] + C[C@@H]1COCCN1C2=NC(=NC(=C2)C3(CC3)[S@](=N)(=O)C)C4=C5C=CNC5=NC=C4 [AZD6738] (first compound max 1 µM, 7x7, partner max 10 µM)	satisfied
N#Cc1cnc(Nc2cc(NC[C@H]3CNCCO3)c(C(F)(F)F)cn2)cn1 [SRA737] + CCc1c2c(nc3ccc(O)cc13)-c1cc3c(c(=O)n1C2)COC(=O)[C@]3(O)CC [SN-38] (first compound max 10 µM, 7x7, partner max 0.3 µM)	satisfied

## Task Given C[C@@H](c1ccc2nccn2c1)n1nnc2ncc(-c3cnn(C)c3)nc21 [Savolitinib] + CC1(C)CCC(CN2CCN(c3ccc(C(=O)NS(=O)(=O)c4ccc(NCC5CCOCC5)c([N+](=O)[O-])c4)c(Oc4cnc5[nH]ccc5c4)c3)CC2)=C(c2ccc(Cl)cc2)C1 [Venetoclax] (first compound max 1 µM, 7x7, partner max 1 µM) , state whether its Bliss excess is at least -0.002.
## Result not satisfied

## Task Quick check, Bliss excess >= -0.002? NC1(C(=O)N[C@@H](CCO)c2ccc(Cl)cc2)CCN(c2ncnc3[nH]ccc23)CC1 [Capivasertib] + CC(=O)c1c(C)c2cnc(Nc3ccc(N4CCNCC4)cn3)nc2n(C2CCCC2)c1=O [Palbociclib] (first compound max 10 µM, 7x7, partner max 10 µM)
## Result satisfied

## Task Entry C[C@@H]1COCCN1c1cc(C2([S@](C)(=N)=O)CC2)nc(-c2ccnc3[nH]ccc23)n1 [AZD6738] + Nc1ccn([C@@H]2O[C@H](CO)[C@@H](O)C2(F)F)c(=O)n1 [Gemcitabine] (first compound max 10 µM, 7x7, partner max 0.3 µM) : is its Bliss excess no less than -0.002?
## Result satisfied

====

Listed here: items and their measured combination Emax.
# System: SUP-HD1 (Hodgkin's Lymphoma)
# Assay Summary: combination Emax (second highest fraction inhibited in the dose matrix, 72 h); higher = more inhibition; extreme values may be limits of the assay
Write the number on its own, no unit after it.

Solved cases (3 shown):
NC1(C(=O)N[C@@H](CCO)c2ccc(Cl)cc2)CCN(c2ncnc3[nH]ccc23)CC1 [Capivasertib] + COc1nnc2ccc(N3CCC(c4ccc(OCCN5CCN(C)C(=O)[C@H]5C)cc4)CC3)nn12 [AZD5153] (first compound max 10 µM, 7x7, partner max 1 µM)	0.857
CC(=O)c1c(C)c2cnc(Nc3ccc(N4CCNCC4)cn3)nc2n(C2CCCC2)c1=O [Palbociclib] + Cc1c2c(nn1C)CSCc1cc(n(C)n1)CSc1cc(c3ccccc3c1)OCCCc1c(C(=O)O)n(C)c3c-2c(Cl)ccc13 [AZD5991] (first compound max 10 µM, 7x7, partner max 1 µM)	0.62
Cn1cnc2c(F)c(Nc3ccc(Br)cc3Cl)c(C(=O)NOCCO)cc21 [Selumetinib] + C[C@@H]1COCCN1C2=NC(=NC(=C2)C3(CC3)[S@](=N)(=O)C)C4=C5C=CNC5=NC=C4 [AZD6738] (first compound max 10 µM, 7x7, partner max 10 µM)	0.668

## Task So what's the measured combination Emax for this one? CC1(C)CCC(CN2CCN(c3ccc(C(=O)NS(=O)(=O)c4ccc(NCC5CCOCC5)c([N+](=O)[O-])c4)c(Oc4cnc5[nH]ccc5c4)c3)CC2)=C(c2ccc(Cl)cc2)C1 [Venetoclax] + CN(C)CCCOc1ccc(-c2ccc3ncc4c(c3c2)n(C2CCOCC2)c(=O)n4C)cn1 [AZD0156] (first compound max 1 µM, 7x7, partner max 1 µM)
## Result 0.761

====

# Tested on: NCI-H1648 (Lung Adenocarcinoma)
# Assay Summary: combination Emax (second highest fraction inhibited in the dose matrix, 72 h); higher = more inhibition; extreme values may be limits of the assay
Label MET when combination Emax is at or above 0.6; anything below gets NOT MET.

Check out these entries, answers already filled in.
N#Cc1cnc(Nc2cc(NC[C@H]3CNCCO3)c(C(F)(F)F)cn2)cn1 [SRA737] + C=CCn1c(=O)c2cnc(Nc3ccc(N4CCN(C)CC4)cc3)nc2n1-c1cccc(C(C)(C)O)n1 [AZD1775] (first compound max 10 µM, partner max 1 µM)	MET
Cc1c2c(nn1C)CSCc1cc(n(C)n1)CSc1cc(c3ccccc3c1)OCCCc1c(C(=O)O)n(C)c3c-2c(Cl)ccc13 [AZD5991] + CC1(C)CCC(CN2CCN(c3ccc(C(=O)NS(=O)(=O)c4ccc(NCC5CCOCC5)c([N+](=O)[O-])c4)c(Oc4cnc5[nH]ccc5c4)c3)CC2)=C(c2ccc(Cl)cc2)C1 [Venetoclax] (first compound max 1 µM, 7x7, partner max 1 µM)	MET
CC1(C)CCC(CN2CCN(c3ccc(C(=O)NS(=O)(=O)c4ccc(NCC5CCOCC5)c([N+](=O)[O-])c4)c(Oc4cnc5[nH]ccc5c4)c3)CC2)=C(c2ccc(Cl)cc2)C1 [Venetoclax] + Cn1cnc2c(F)c(Nc3ccc(Br)cc3Cl)c(C(=O)NOCCO)cc21 [Selumetinib] (first compound max 1 µM, 7x7, partner max 3 µM)	NOT MET
CCc1c2c(nc3ccc(O)cc13)-c1cc3c(c(=O)n1C2)COC(=O)[C@]3(O)CC [SN-38] + O=C(c1cc(Cc2n[nH]c(=O)c3ccccc23)ccc1F)N1CCN(C(=O)C2CC2)CC1 [Olaparib] (first compound max 0.3 µM, 7x7, partner max 10 µM)	MET
Cc1c2c(nn1C)CSCc1cc(n(C)n1)CSc1cc(c3ccccc3c1)OCCCc1c(C(=O)O)n(C)c3c-2c(Cl)ccc13 [AZD5991] + CS(=O)(=O)CCNCc1ccc(-c2ccc3ncnc(Nc4ccc(OCc5cccc(F)c5)c(Cl)c4)c3c2)o1 [Lapatinib] (first compound max 1 µM, 7x7, partner max 10 µM)	MET
C[C@@H](Oc1cc(-c2cnn(C3CCNCC3)c2)cnc1N)c1c(Cl)ccc(F)c1Cl [Crizotinib] + Cn1cnc2c(F)c(Nc3ccc(Br)cc3Cl)c(C(=O)NOCCO)cc21 [Selumetinib] (first compound max 10 µM, 7x7, partner max 10 µM)	NOT MET

Now, please, on to the next compound.
## Task Answer whether combination Emax of NC1(C(=O)N[C@@H](CCO)c2ccc(Cl)cc2)CCN(c2ncnc3[nH]ccc23)CC1 [Capivasertib] + COc1nnc2ccc(N3CCC(c4ccc(OCCN5CCN(C)C(=O)[C@H]5C)cc4)CC3)nn12 [AZD5153] (first compound max 10 µM, 7x7, partner max 1 µM) is greater than or equal to 0.6.
## Result MET

====

# Tested on: L-363 (Plasma Cell Myeloma)
# Assay Summary: combination Emax (second highest fraction inhibited in the dose matrix, 72 h); higher = more inhibition; extreme values may be limits of the assay
Given measured combination Emax, output yes if it is greater than or equal to 0.9 and no if not.

Look over these answered cases.
CN(C)CCCOc1ccc(-c2ccc3ncc4c(c3c2)n(C2CCOCC2)c(=O)n4C)cn1 [AZD0156] + CCN(CCO)CCCOc1ccc2c(Nc3cc(CC(=O)Nc4cccc(F)c4)[nH]n3)ncnc2c1 [AZD2811] (first compound max 1 µM, 7x7, partner max 1 µM)	no
Cc1c2c(nn1C)CSCc1cc(n(C)n1)CSc1cc(c3ccccc3c1)OCCCc1c(C(=O)O)n(C)c3c-2c(Cl)ccc13 [AZD5991] + C=CCn1c(=O)c2cnc(Nc3ccc(N4CCN(C)CC4)cc3)nc2n1-c1cccc(C(C)(C)O)n1 [AZD1775] (first compound max 1 µM, partner max 1 µM)	yes
CN(C)CCCOc1ccc(-c2ccc3ncc4c(c3c2)n(C2CCOCC2)c(=O)n4C)cn1 [AZD0156] + C=CCn1c(=O)c2cnc(Nc3ccc(N4CCN(C)CC4)cc3)nc2n1-c1cccc(C(C)(C)O)n1 [AZD1775] (first compound max 1 µM, partner max 1 µM)	yes

## Task Is combination Emax at least 0.9? Consider NC1(C(=O)N[C@@H](CCO)c2ccc(Cl)cc2)CCN(c2ncnc3[nH]ccc23)CC1 [Capivasertib] + CCN(CCO)CCCOc1ccc2c(Nc3cc(CC(=O)Nc4cccc(F)c4)[nH]n3)ncnc2c1 [AZD2811] (first compound max 10 µM, 7x7, partner max 1 µM)
## Result no

## Task Hello, I need to know if CN(CCO)CC[C@H](CSc1ccccc1)Nc1ccc(S(=O)(=O)NC(=O)c2ccc(N3CCC([C@@H](O)c4ccccc4-c4ccc(Cl)cc4)CC3)cc2)cc1S(=O)(=O)C(F)(F)F [AZD4320] + C[C@@H](Nc1cc(F)cc(F)c1)c1cc(C(=O)N(C)C)cc2c(=O)cc(N3CCOCC3)oc12 [AZD8186] (first compound max 1 µM, 7x7, partner max 3 µM) has measured combination Emax not below 0.9. Thanks!
## Result no

## Task Tell me whether combination Emax is at least 0.9 here: Cc1c2c(nn1C)CSCc1cc(n(C)n1)CSc1cc(c3ccccc3c1)OCCCc1c(C(=O)O)n(C)c3c-2c(Cl)ccc13 [AZD5991] + CN(C)CCCOc1ccc(-c2ccc3ncc4c(c3c2)n(C2CCOCC2)c(=O)n4C)cn1 [AZD0156] (first compound max 1 µM, 7x7, partner max 1 µM)
## Result yes

## Task For this compound, is measured combination Emax 0.9 or higher? CC1(C)CCC(CN2CCN(c3ccc(C(=O)NS(=O)(=O)c4ccc(NCC5CCOCC5)c([N+](=O)[O-])c4)c(Oc4cnc5[nH]ccc5c4)c3)CC2)=C(c2ccc(Cl)cc2)C1 [Venetoclax] + CN(C)CCCOc1ccc(-c2ccc3ncc4c(c3c2)n(C2CCOCC2)c(=O)n4C)cn1 [AZD0156] (first compound max 1 µM, 7x7, partner max 1 µM)
## Result no
